Source listed as ChEMBL document CHEMBL3885881.

Species on record: Rattus norvegicus
Assay: DrugMatrix - Regimen: Daily Repeat
Type: toxicity, organism-based, Sprague-Dawley
Design: regimen Daily Repeat, gender Male, age 6-8 weeks
Conditions: in vivo, po, 0 mg/kg, 72 h, tissue Plasma, route oral GAVAGE, dose level Control, time 3 day, […]
Reported PHOSPHORUS values follow for various compounds

mol_smiles	PHOSPHORUS / mg/dL
CCC(C)(C)C(=O)O[C@H]1C[C@@H](C)C=C2C=C[C@H](C)[C@H](CC[C@@H]3C[C@@H](O)CC(=O)O3)[C@H]21	10.07
CC(C)(c1ccc(O)cc1)c1ccc(O)cc1	10.1
CS(=O)(=O)c1ccc(C2=C(c3ccccc3)C(=O)OC2)cc1	10.2
c1ccc2c(c1)Nc1ccccc1S2	10.2

###

Species: Rattus norvegicus
Assay: DrugMatrix - Regimen: Daily Repeat
Format: toxicity, organism-based, Sprague-Dawley
Design: regimen Daily Repeat, gender Male, age 6-8 weeks
Settings: in vivo, po, 0 mg/kg, 72 h, tissue Plasma, route oral GAVAGE, dose level Control, time 3 day, […]
value_type: ALBUMIN (G/DL)

compound	recorded_value
CO[C@H]1O[C@@H]2O[C@@]3(C)CC[C@H]4[C@H](C)CC[C@@H]([C@H]1C)[C@@]24OO3	4.1
CC(C)(c1ccc(O)cc1)c1ccc(O)cc1	3.93
Cc1cccc(C)c1NC(=O)C(C)N (stereo not given) [TOCAINIDE]	4
COc1ccccc1OCCNCC(O)COc1cccc2[nH]c3ccccc3c12 (stereo not given)	3.97
CCC(C)(C)C(=O)O[C@H]1C[C@@H](C)C=C2C=C[C@H](C)[C@H](CC[C@@H]3C[C@@H](O)CC(=O)O3)[C@H]21	4.02

###

Species: Rattus norvegicus
Test: DrugMatrix - Regimen: Daily Repeat
Type: toxicity, organism-based, Sprague-Dawley
Set-up: regimen Daily Repeat, gender Male, age 6-8 weeks
Conditions: in vivo, po, 0 mg/kg, 72 h, tissue Plasma, route oral GAVAGE, dose level Control, time 3 day, […]
This listing pairs compounds with measured SODIUM.
value_type: SODIUM (MEQ/L)

compound	value_type	recorded_value
CS(=O)(=O)c1ccc(C2=C(c3ccccc3)C(=O)OC2)cc1 [ROFECOXIB]	SODIUM	144.12
O=C(Nc1ccc(Cl)c(Cl)c1)c1cc(Cl)cc(Cl)c1O [3,3',4',5-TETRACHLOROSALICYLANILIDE]	SODIUM	143.3
COC(=O)Nc1nc2ccc(C(=O)c3ccccc3)cc2[nH]1 [MEBENDAZOLE]	SODIUM	143.2
Oc1ncnc2[nH]ncc12 [ALLOPURINOL]	SODIUM	142.9
O=C(O)COC(=O)Cc1ccccc1Nc1c(Cl)cccc1Cl [ACECLOFENAC]	SODIUM	143.2
Cc1cccc(C)c1NC(=O)C(C)N (stereo not given) [TOCAINIDE]	SODIUM	142.48
CCC(C)(C)C(=O)O[C@H]1C[C@@H](C)C=C2C=C[C@H](C)[C@H](CC[C@@H]3C[C@@H](O)CC(=O)O3)[C@H]21 [SIMVASTATIN]	SODIUM	142.92
COc1ccccc1OCCNCC(O)COc1cccc2[nH]c3ccccc3c12 (stereo not given) [CARVEDILOL]	SODIUM	143.2
CC(C)(c1ccc(O)cc1)c1ccc(O)cc1 [BISPHENOL A]	SODIUM	143.02
CO[C@H]1O[C@@H]2O[C@@]3(C)CC[C@H]4[C@H](C)CC[C@@H]([C@H]1C)[C@@]24OO3	SODIUM	143.4
